Target: human P2X3 receptor (Homo sapiens)
Sequence (P56373 1-397): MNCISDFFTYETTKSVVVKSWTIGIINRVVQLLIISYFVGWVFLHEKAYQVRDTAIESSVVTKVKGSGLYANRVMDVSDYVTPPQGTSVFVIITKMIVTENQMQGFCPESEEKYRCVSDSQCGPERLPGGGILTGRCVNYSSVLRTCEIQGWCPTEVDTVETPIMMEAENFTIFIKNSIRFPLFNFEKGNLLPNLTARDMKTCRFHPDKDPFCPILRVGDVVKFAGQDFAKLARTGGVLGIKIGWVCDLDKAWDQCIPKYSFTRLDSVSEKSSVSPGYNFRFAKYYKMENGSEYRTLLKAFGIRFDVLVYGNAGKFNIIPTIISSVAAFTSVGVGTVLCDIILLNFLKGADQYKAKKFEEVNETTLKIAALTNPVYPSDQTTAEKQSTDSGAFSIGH
Test: Intracellular calcium measurement to assess antagonist activity at human P2X3 receptors (hP2X3 CHO), photina luminescence
Format: cell-based
Design: expressed in transfected cells; host or cells: Chinese hamster ovary (CHO) cells
Conditions: column 2), CHO cells, agonist α,β-methylene-ATP at EC50
Overview of reported IC50 across a group of molecules:
The answer is to be given in nM; state only the numeric part.

Some solved entries appear below for comparison.
| MOLECULE | UNIT SPEC | IC50 |
| --- | --- | --- |
| O=C(Cn1c2c(c(=O)n3nc(C(=O)Nc4ccccc4F)cc13)CN(Cc1ccccn1)C2=O)Nc1ccc(F)cn1 [Example 222] | nM | 15 |
| CC(C)c1cc2n(CC(=O)Nc3ccc(F)cn3)c3c(c(=O)n2n1)CN(CC(C)(C)O)C3=O [Example 51] | nM | 160 |
| CC(C)N1Cc2c(n(CC(=O)Nc3ccc(F)cn3)c3cc(Br)nn3c2=O)C1=O [Example 75] | nM | 29 |
| COC[C@H](C)N1Cc2c(n(CC(=O)Nc3ccc(F)cn3)c3cc(C(=O)N(C)C)nn3c2=O)C1=O [Example 189] | nM | 35 |
| CC(C)[C@H](C)N1Cc2c(n(CC(=O)Nc3ccc(F)cn3)c3cc(C(C)(C)C)nn3c2=O)C1=O [Example 10] | nM | 38 |
| CC[C@@H](C)N1Cc2c(n(CC(=O)Nc3ccc(C)cn3)c3cc(C(F)(F)F)nn3c2=O)C1=O [Example 16] | nM | 320 |
| CC(C)N1Cc2c(n(CC(=O)Nc3ccc(F)cn3)c3cc(C(=O)N(C)C)nn3c2=O)C1=O [Example 182] | nM | 109 |
| CC(C)(C)c1cc2n(CC(=O)Nc3ccc(F)cn3)c3c(c(=O)n2n1)CN(C1CCOCC1)C3=O [Example 33] | nM | 165 |

Prompt: Notebook entry, human P2X3 receptor (Homo sapiens) assay: IC50 of CCc1cc2n(CC(=O)Nc3ccc(F)cn3)c3c(c(=O)n2n1)CN(C1CCOCC1)C3=O [Example 94] = ?
Completion: 290

----------
Overview of reported log10(IC50) across a group of molecules:
Molecular target: human P2X3 receptor (Homo sapiens, UniProt P56373)
Assay: Intracellular calcium measurement, antagonist activity at human P2X3 receptors (hP2X3 1321N1), Fluo8
Type: cell-based
Parameters: expressed in transfected cells; host or cells: human astrocytoma 1321N1 (1312N1 [sic])
Settings: column 3); 1321N1 cells, human P2X3, Fluo8, agonist ATP at EC50
Kindly note that the scale is log10 and the underlying IC50 is in nM.

Some solved entries appear below for comparison.
| MOLECULE | log10(IC50) |
| --- | --- |
| CCc1cc2n(CC(=O)Nc3ccc(F)cn3)c3c(c(=O)n2n1)CN(CC1CCCO1)C3=O (racemic) | 2.27 |
| CC(C)N1Cc2c(n(CC(=O)Nc3ccc(F)cn3)c3cc(C4CCNCC4)nn3c2=O)C1=O.Cl | 2.57 |
| Cc1ccc(-c2cc3n(CC(=O)Nc4ccc(F)cn4)c4c(c(=O)n3n2)CN([C@@H]2CCOC2)C4=O)nc1 | 0.78 |
| COC[C@H](C)N1Cc2c(n(CC(=O)Nc3ccc(F)cn3)c3cc(C)nn3c2=O)C1=O | 1.91 |

Prompt: Notebook entry, human P2X3 receptor (Homo sapiens, UniProt P56373) assay: log10(IC50) of "Cc1ccc(NC(=O)Cn2c3c(c(=O)n4nc(C5CCOCC5)cc24)CN(C(C)C)C3=O)nc1" = ?
Completion: 2.16

Prompt: Notebook entry, human P2X3 receptor (Homo sapiens, UniProt P56373) assay: log10(IC50) of "CC(C)N1Cc2c(n(CC(=O)Nc3ccc(F)cn3)c3cc(CO)nn3c2=O)C1=O" = ?
Completion: 2.37

Prompt: Notebook entry, human P2X3 receptor (Homo sapiens, UniProt P56373) assay: log10(IC50) of "CC(C)N1Cc2c(n(CC(=O)Nc3ccc(F)cn3)c3cc(C4CCS(=O)(=O)CC4)nn3c2=O)C1=O" = ?
Completion: 1.43
